Below, each entry is listed alongside its reported Emax (% 5-HT), inositol phosphate production.
Experimental target: human 5-HT2C–INI (wild-type, WT) receptor (Homo sapiens, UniProt P28335)
Sequence (P28335 33-458): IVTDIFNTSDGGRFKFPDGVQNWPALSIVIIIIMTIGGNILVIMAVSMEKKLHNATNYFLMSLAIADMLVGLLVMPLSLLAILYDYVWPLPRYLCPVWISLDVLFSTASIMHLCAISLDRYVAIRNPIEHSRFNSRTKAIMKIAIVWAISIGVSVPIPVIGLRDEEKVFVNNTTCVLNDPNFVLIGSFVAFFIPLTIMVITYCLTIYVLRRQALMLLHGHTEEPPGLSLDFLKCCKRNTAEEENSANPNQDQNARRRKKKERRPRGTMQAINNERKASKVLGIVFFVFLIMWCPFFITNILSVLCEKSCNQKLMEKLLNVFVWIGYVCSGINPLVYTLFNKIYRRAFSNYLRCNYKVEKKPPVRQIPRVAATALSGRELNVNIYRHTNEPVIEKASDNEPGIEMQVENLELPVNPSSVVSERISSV
Assay type: cell-based
Marks after values point to notes of the source that are not given here.
Assay metric: Emax (% 5-HT), inositol phosphate production

Compound: O=C1Nc2cc(Cl)c(Cl)cc2N2CCNCC12 (centres unmarked) [WAY-161503]
Measured: 100 ± 2 % 5-HT

Compound: C[C@H]1CNCCc2ccc(Cl)cc21 [lorcaserin]
Measured: 100 ± 1 % 5-HT

Compound: C[C@H](N)Cn1ccc2cc(F)c(Cl)cc21 [Ro 60–0175]
Measured: 99 ± 6 % 5-HT

Compound: CN(C)[C@@H]1Cc2ccccc2[C@@H](c2cccc(Br)c2)C1 (relative stereo) [MBP]
Measured: 73 ± 4^a % 5-HT

Compound: COc1cc(CC(C)N)c(OC)cc1I (racemic) [DOI, (±) 2,5-dimethoxy-4-iodoamphetamine]
Measured: 82 ± 4 % 5-HT

Compound: Clc1cccc(N2CCNCC2)c1 [mCPP, 1-(3-chlorophenyl)piperazine]
Measured: 88 ± 10 % 5-HT

Compound: O=C1CCc2ccc(OCCCCN3CCN(c4cccc(Cl)c4Cl)CC3)cc2N1 [aripiprazole]
Measured: 40 ± 4^a % 5-HT

Compound: CN(C)[C@@H]1Cc2ccccc2[C@@H](c2ccccc2)C1 (relative stereo) [PAT]
Measured: 50 ± 1^a % 5-HT
